biological target: EBOV GP ectodomain residues 1-636 (GPec) (Zaire ebolavirus, strain  …, UniProt Q05320)

binder	binding result
5.6.c2617 (antibody, V domains shown) VH: EVQLVESGGGLVQPGGSLRLSCVASGFTFSSYEMDWVRQAPGKGLEWVSYIGSSGSTIYYADSVKGRFTISRDNAKNSLYLQMNSLRAEDTAVYYCARDTETTGLYYYGMDVWGQGTTVTVSA VL: DIQMTQSPSSVSASVGDRVTITCRASQGISRWLAWYQQKPGKAPKLLIYGTSSLQSGVPSRFSGSGSGTDFTLTISSLQPEDFATYYCQQANSFPFTFGPGTRVDIK	binds
5.6.c3105 (antibody, V domains shown) VH: EEQLVESGGDLVQPGGSLRLSCAASGFTFRSYDMYWVRQVTGKGLEWVSVIGAGGDTYYSDAVKGRFTISRENAKNSLYLQMNNLRAGDTAVYYCARSFGFLYGFDVWGHGTTVTVSS VL: ENVLTQSPGTLSLSPGERATLSCRASQSISSKYFAWYQHKPGQAPRVLIYAASSRATGVPDRFSGSGSGTDFTLTISRLEPEDFAVYYCQQYDSSPITFGQGTRLEIK	binds
5.6.c2686 (antibody, V domains shown) VH: QVQLQESGPGLVKPSGTLSLTCAVSGGSITSSDWWSWVRQTPGKGLEWIGQIYSGGMTDYNPSLKSRVTMSLDKSKNQFSVKLNSVTAADTAVYYCARHRLNAEMYCSGGSCYPADSNWFDPWGQGTLVTVSS VL: DIQMTQSPSSLSASVGDRVTITCRASQSISTYLNWYQQKPGKAPKLLIYATSSLQSGVPSRFSGSGSGTDFTFTISSLQPEDFATYYCQQSYSTPFTFGPGTKVDIK	binds
